Target: CD47 on HL60 cells (UniProt Q08722 19-323, limits assumed)
Assay: cell-based or functional assay
Catalogue of rate of phagocytosis, antibody 10 µg/mL readings, one per entry.
Reply numerically in %, unit not repeated.

// below: answered binders
BINDER: Xi2H8 (antibody, human IgG4 S228P, kappa, V domains shown, mouse variable regions on human IgG4 (EU S228P) and human kappa constant regions; also called chimeric 2H8 antibody) VH: QVQLKESGPGLVAPSQSLSITCTVSGFSLTNYGVHWVRQPPGKGLEWLGIIWAGGSTNYNSALMSRLSISKDNSKSQVFLKMNSLQTDDTAMYYCARDDYASMDYWGQGTSVTVSS VL: DAFMTQTPLSLPVSLGDQASISCRSSQSLVHSNGNTYLHWYLQKPGQSPKLLIYKVSNRFSGVPDRFSGSGSGTDFTLKISRVEAEDLGVYFCSQSTHVPYTLGGGTKLEIKR
UNIT_OF_MEASUREMENT: %
rate of phagocytosis, antibody 10 µg/mL: 3.5
//
BINDER: Xi3F10 (antibody, human IgG4 S228P, kappa, V domains shown, mouse variable regions on human IgG4 (EU S228P) and human kappa constant regions; also called chimeric 3F10 antibody) VH: EVQLQQSVAELMKPGASVKIYCKATGYTFSRYWIEWVKQRPGHGLEWIGEFIPGSDTTNFNEKFKGKATFTAEISSNTAYMQLSSLTSEDSAVYFCARGGLRRMDYWGQGTSVTVSS VL: DIVMTQTPAIMSASPGEKVTMTCRASSSVSSTYLHWYQQKSGASPKLWIYTTSTLASGVPARFSGSGSGTSYSLTISSVEAEDAATYYCQQFSDSTWTFGGGTKLEIKR
UNIT_OF_MEASUREMENT: %
rate of phagocytosis, antibody 10 µg/mL: 59.8

Answer with the recorded rate of phagocytosis, antibody 10 µg/mL of Xi14A9 (antibody, human IgG4 S228P, kappa, V domains shown, mouse variable regions on human IgG4 (EU S228P) and human kappa constant regions; also called chimeric 14A9 antibody) VH: EVQLQQSGAEVARPGASVKLSCTVSGFNIEDDYIEWVKQRPEQGLEWIGRIDPANDKTKYAPKFQDKATITGDTSSNTAYLQLSSLTSEDTAVYYCTRPGLRRYYSMDYWGQGTSVTVSS VL: NIVLTQSPKSMSMSVGERVTLSCKASENVVSYVSWYQQKPEQSPKLLIYGASNRYTGVPDRFIGSGSSTDFTLIISSFQPEDLADYHCGQSYSYPLTFGAGTKLELKR only.
44.7

Answer with the recorded rate of phagocytosis, antibody 10 µg/mL of Xi16E5 (antibody, human IgG4 S228P, kappa, V domains shown, mouse variable regions on human IgG4 (EU S228P) and human kappa constant regions; also called chimeric 16E5 antibody) VH: EVQLQQSGPELKKPGETVKISCKASGYTFTNYGMNWVKQVPGKGLKWMGWINTNTGEPTYAEEFKGRFAFSLETSARTAFLQINNLKNEDTATYFCTRFSHLRGPMDYWGQGASVTVSS VL: DAVMTQTPLSLPVSLGDQASISCRSSQSLVHSNGYTYLHWYLQKPGQSPKLLIYKVSNRFSGVPDRFSGSGSGTDFTLKISRLEAEDLGVYFCSQSTHVPPTFGGGTKLEIKR only.
28.8
